# Target: HPK1 (Homo sapiens)
# Construct: purchased SignalChem M23-11G
# Sequence (Q92918 1-346 limits assumed): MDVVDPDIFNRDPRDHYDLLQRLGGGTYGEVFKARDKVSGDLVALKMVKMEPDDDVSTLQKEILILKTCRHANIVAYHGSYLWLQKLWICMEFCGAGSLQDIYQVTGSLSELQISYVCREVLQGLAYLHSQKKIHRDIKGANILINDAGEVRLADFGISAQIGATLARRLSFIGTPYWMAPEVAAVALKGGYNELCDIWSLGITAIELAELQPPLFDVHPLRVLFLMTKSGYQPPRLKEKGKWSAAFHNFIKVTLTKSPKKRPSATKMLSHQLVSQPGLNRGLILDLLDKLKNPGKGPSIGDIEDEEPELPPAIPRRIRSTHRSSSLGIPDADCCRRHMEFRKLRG
# Measurement description: HPK1 Inhibition Assay (kinase reaction, Caliper capillary electrophoresis)
# Format: biochemical
# Test conditions: ratio of the IRAK4 IC50 value to the HPK1 IC50 value

{"Molecule": "CC1(C)OC(=O)c2ccc(Nc3ncc(-c4nnc(-c5cccnn5)o4)c(N[C@H](CO)c4ccccc4)n3)cc21 [Example 67]", "IRAK4/HPK1 Ratio": "B (B=10 to 50)"}
{"Molecule": "CCCc1noc(-c2cnc(Nc3ccc4c(c3)C(C)(C)OC4=O)nc2N[C@H](CO)c2ccccc2)n1 [Example 35]", "IRAK4/HPK1 Ratio": "C (C=>50)"}
{"Molecule": "CC1(C)OC(=O)c2ccc(Nc3cc(N[C@H](CO)c4ccccc4)c(-c4nc(C5CN6CCC5(F)CC6)no4)cn3)nc21 (stereo partly drawn) [Example 83]", "IRAK4/HPK1 Ratio": "C (C=>50)"}
{"Molecule": "CC1(C)OC(=O)c2ccc(Nc3ncc(C(=O)NCC4CN5CCC4CC5)c(N[C@H](CO)c4ccccc4)n3)cc21 (stereo partly drawn) [Example 25]", "IRAK4/HPK1 Ratio": "B (B=10 to 50)"}
{"Molecule": "C#CCNC(=O)c1cnc(Nc2ccc3c(c2)C(C)(C)OC3=O)nc1N[C@H](CO)c1ccccc1 [Example 21]", "IRAK4/HPK1 Ratio": "B (B=10 to 50)"}
{"Molecule": "CC1(C)OC(=O)c2ccc(Nc3cc(N[C@H](CO)C4CC4)c(-c4nc(C5CC5)no4)cn3)cc21 [Example 79]", "IRAK4/HPK1 Ratio": "B (B=10 to 50)"}
{"Molecule": "O=C1OCc2cc(Nc3ncc(-c4ncccn4)c(N[C@H](CO)c4ccccc4)n3)ccc21 [Example 1]", "IRAK4/HPK1 Ratio": "B (B=10 to 50)"}
{"Molecule": "CC(NC(=O)c1cnc(Nc2ccc3c(c2)C(C)(C)OC3=O)nc1N[C@H](CO)c1ccccc1)c1ccccc1 (stereo partly drawn) [Example 15]", "IRAK4/HPK1 Ratio": "B (B=10 to 50)"}
{"Molecule": "CC1(C)OC(=O)c2ccc(Nc3ncc(C(=O)NCC4(CN5CCOCC5)CC4)c(N[C@H](CO)c4ccccc4)n3)cc21 [Example 26]", "IRAK4/HPK1 Ratio": "C (C=>50)"}
{"Molecule": "CC1(C)OC(=O)c2ccc(Nc3ncc(-c4nnc(-c5cccnc5)o4)c(N[C@H](CO)c4ccccc4)n3)cc21 [Example 57]", "IRAK4/HPK1 Ratio": "C (C=>50)"}
{"Molecule": "CN(C)CCNC(=O)c1cnc(Nc2ccc3c(c2)C(C)(C)OC3=O)nc1N[C@H](CO)c1ccccc1 [Example 9]", "IRAK4/HPK1 Ratio": "B (B=10 to 50)"}
{"Molecule": "CC1(C)OC(=O)c2ccc(Nc3cc(NCc4nccs4)c(-c4nc(C56CCN(CC5)CC6)no4)cn3)nc21 [Example 84]", "IRAK4/HPK1 Ratio": "C (C=>50)"}
{"Molecule": "CC1(C)OC(=O)c2ccc(Nc3ncc(-c4nc(C5CCOCC5)no4)c(N[C@H](CO)c4ccccc4)n3)cc21 [Example 33]", "IRAK4/HPK1 Ratio": "C (C=>50)"}
{"Molecule": "CC1(C)OC(=O)c2ccc(Nc3ncc(-c4nnc(-c5ccccn5)o4)c(N[C@H](CO)c4ccccc4)n3)cc21 [Example 66]", "IRAK4/HPK1 Ratio": "B (B=10 to 50)"}
{"Molecule": "CC1(C)OC(=O)c2ccc(Nc3ncc(C4=NCC5(CCOCC5)O4)c(N[C@H](CO)c4ccccc4)n3)cc21 [Example 27]", "IRAK4/HPK1 Ratio": "B (B=10 to 50)"}
